Source listed as patent US20100069366A1.

tested on: Staphylococcus aureus (ATCC29213); experiment: Microtitre plate assay, IC90 determination, STA 29213; assay type: cell-based; conditions: Staphylococcus aureus ATCC29213; 90% inhibitory concentration for bacterial growth; resazurin; read-out: IC90 (μg/ml) STA 29213
Property Label: IC90 (µg/mL)

> print(dat)
                                   compound                             target  property.label  measured.value
1  COc1nc2ccc(Br)cc2cc1/C(=C(/CCN(C)C)c1ccsc1)c1ccccc1  Staphylococcus aureus (ATCC29213)            IC90            17.5
2  COc1nc2ccc(Br)cc2cc1/C(=C(\C)CCN(C)C)c1ccccc1  Staphylococcus aureus (ATCC29213)            IC90            33.8
3  COc1ccc(/C(CCCCN2CCCCC2)=C(/c2ccccc2)c2cnc3ccccc3c2)cc1  Staphylococcus aureus (ATCC29213)            IC90            47.7
4  COc1nc2ccc(Br)cc2cc1C(/C(C)=C/CN(C)C)c1ccccc1 (centres unmarked)  Staphylococcus aureus (ATCC29213)            IC90            33.8
5  COc1nc2ccc(Br)cc2cc1C(/C(=C/Cc1ccccc1)CCN(C)C)c1ccccc1 (centres unmarked)  Staphylococcus aureus (ATCC29213)            IC90            1.63
6  COc1nc2ccc(Br)cc2cc1C(/C(=C/CN(C)C)CCc1ccccc1)c1ccccc1 (centres unmarked)  Staphylococcus aureus (ATCC29213)            IC90            8.17

(a) COc1nc2ccc(Br)cc2cc1C(/C(=C/CN(C)C)c1ccsc1)c1ccccc1 (centres unmarked)
(b) COc1nc2ccc(Br)cc2cc1/C(=C(/CCN(C)C)c1cccc2ccccc12)c1ccccc1
Input: Pick one, a or b : lowest reported IC90. Provide the label of your selected option as the answer.
Output: b

###

System: Staphylococcus aureus (ATCC29213)
Test: Microtitre plate assay, IC90 determination, STA 29213
Type: cell-based
Settings: Staphylococcus aureus ATCC29213; 90% inhibitory concentration for bacterial growth; resazurin
Procedure: The bacteria used in this study were grown overnight in flasks containing 100 ml Mueller-Hinton Broth (Becton Dickinson—cat. no. 275730) in sterile de-ionized water, with shaking, at 37° C. Stocks (0.5 ml/tube) were stored at −70° C. until use. […] Flat-bottom, sterile 96-well plastic microtiter plates were filled with 180 μl of sterile deionized water, supplemented with 0.25% BSA. […] At the end of incubation, one day after inoculation, the bacterial growth was quantitated fluorometrically. […]
Property Label: IC90 (μg/ml) STA 29213 (µg/mL)

> print(dat)
                                   compound  measured.value
1  COc1nc2ccc(-c3ccccc3)cc2cc1C(C(=CCN(C)C)c1cccc2ccccc12)c1ccccc1 (mixture of isomers)            1.69
2  COc1ccc2nc(OC)c(C(C(=CCN(C)C)c3ccccc3)c3ccccc3)cc2c1 (racemic)           39.09
3  COc1nc2ccc(C)cc2cc1C(C(=CCN(C)C)c1ccccc1)c1ccccc1 (racemic)             6.7

(P) COc1nc2ccc(Br)cc2cc1C(=C(C)CCN(C)C)c1ccccc1 (mixture of isomers)
(Q) CCN(CC)CC=C(c1cccc2ccccc12)C(c1ccccc1)c1cc2cc(Br)ccc2nc1OC (racemic)
(R) COc1nc2ccc(Br)cc2cc1C(=C(CCN1CCOCC1)c1ccccc1)c1ccccc1 (mixture of isomers)
Input: Arrange the 3 compounds by rising IC90 (μg/ml) STA 29213, starting with the smallest. Your reply should list the labels following the order given in the request.
Output: Q, P, R
(Q: 8.96 µg/mL, P: 33.79 µg/mL, R: 52.95 µg/mL)

(a) COc1nc2ccc(Br)cc2cc1C(=C(CCN1CCN(C)CC1)c1ccccc1)c1ccccc1 (mixture of isomers) [Compound 45]
(b) COc1nc2ccc(Br)cc2cc1C(=C(CCN1CCN(C)CC1)c1ccccc1)c1ccccc1 (mixture of isomers) [Compound 44]
Input: Endpoint returns whichever of a and b has the numerically higher IC90 (μg/ml) STA 29213. Refer to your chosen item by its label in the answer.
Output: a
(a: 43.09 µg/mL, b: 10.82 µg/mL)
